The values you see were collected from PubChem BioAssay (NCATS).

- Test system: HeLa
- PROCEDURE TEXT: Primary qHTS to identify gynecologic anti-cancer compounds using libraries of approved drugs and bioactive compounds (AID 1345084); note: nearly all actives have a fitted effect of over 55% in size; for activity change, negative = cytotoxicity: % is set by controls: 0 for no effect and ±100 for the full control effect
- CONDITION PARAMETERS: Gynecologic cancer cell panel viability, ATPlite luminescence, 48 h; series mostly up to 57.5 µM
Records with an inconclusive call do not appear. Active and inactive are the calls of the source. Calls come from the whole dose curve; as a rule, active = well fitted cell-killing curve with a large enough effect; inconclusive = small, poorly fitted or top-dose-only effect, or effect the other way; inactive = flat fitted curve, though single readings scatter.
METRIC NAME: activity change, negative = cytotoxicity

Lab note: molecule CC1OC(OC2C(C)OC(OC3C(OC(=O)C45CCC(C)(C)CC4C4=CCC6C7(C)CCC(OC8OC(C(=O)O)C(O)C(O)C8OC8OC(CO)C(O)C(OC9OC(C)C(O)C(O)C9O)C8O)C(C)(CO)C7CCC6(C)C4(C)CC5)OC(CO)C(O)C3O)C(O)C2O)C(O)C(O)C1O (configuration not stated) tested on HeLa; recorded activity change, negative = cytotoxicity was 5.48% [at 6.55 µM] (inactive)

Next:
Record for CC(=O)N[C@H]1[C@H](O[C@H]2CC[C@@]3(C)C(CC[C@]4(C)C3CC=C3[C@@H]5CC(C)(C)CC[C@]5(C(=O)OC5OCC(O)C(O)C5O)CC[C@]34C)C2(C)C)O[C@H](COC2OC(C)C(O)C(OC3OC(C)C(O)C(O)C3O)C2O)[C@@H](O)[C@@H]1O (some centres not stated) under target or system HeLa: activity change, negative = cytotoxicity reported as 1.75% [at 11.6 µM] (inactive)

---

- Tested on: OV90
- PROCEDURE TEXT: Primary qHTS to identify gynecologic anti-cancer compounds using libraries of approved drugs and bioactive compounds (AID 1345084); note: nearly all actives have a fitted effect of over 55% in size; for activity change, negative = cytotoxicity: % is set by controls: 0 for no effect and ±100 for the full control effect
- CONDITION PARAMETERS: Gynecologic cancer cell panel viability, ATPlite luminescence, 48 h; series mostly up to 57.5 µM
Records with an inconclusive call do not appear. The source made the active and inactive calls. Calls follow the shape of the dose curve; as a rule, active = well fitted cell-killing curve with a large enough effect; inconclusive = small, poorly fitted or top-dose-only effect, or effect the other way; inactive = flat fitted curve, though single readings scatter.
METRIC NAME: activity change, negative = cytotoxicity

Illustrative cases are given below, each with its answer.
activity change, negative = cytotoxicity for CC(C)(C)CCN1C[C@@H]2C(CNC(=O)c3cc(Cl)cc(Cl)c3)[C@@H]2C1 (stereo partly drawn) is inactive

Looking up "O=C(Nc1ccccc1-c1cn2c(CN3CCNCC3)csc2n1)c1ccc2ccccc2n1" , I found its activity change, negative = cytotoxicity recorded as inactive

Field activity change, negative = cytotoxicity (entry "CC(C)C[C@H](CC(=O)NO)C(=O)N[C@H](C(=O)N[C@@H](C)C(=O)NCCN)C(C)(C)C" ) reads 19.6% [at 11.6 µM] (inactive)

Looking up "CC(C)(C)C(=O)CN1C(=O)[C@H](NC(=O)Nc2cccc(C(=O)O)c2)CN(C2CCCCC2)c2ccccc21" , I found its activity change, negative = cytotoxicity recorded as inactive

Measured activity change, negative = cytotoxicity of "CC(C)c1ccc(CO)cc1O[C@@H]1O[C@H](CO)[C@@H](O)[C@H](O)[C@H]1O" : inactive

The compound listed as "O=C(Nc1ccn[nH]1)c1c(F)cccc1F" shows activity change, negative = cytotoxicity equal to inactive

Entry CC1(C=O)CC[C@]2(C(=O)O[C@@H]3O[C@H](CO)[C@@H](O)[C@H](O)[C@H]3O)CC[C@]3(C)C(=CCC4[C@@]5(C)C[C@H](O)[C@H](O[C@@H]6OC[C@@H](O)[C@H](O)[C@H]6O)[C@@](C)(CO)C5CC[C@]43C)C2C1 (stereo partly drawn) , activity change, negative = cytotoxicity reported as 9.96% [at 11.6 µM] (inactive)

Item: "Cc1csc(NC(=O)c2ccc(COc3cccc(Cl)c3)o2)n1" | activity change, negative = cytotoxicity: inactive

// activity change, negative = cytotoxicity lookup, compound = COC(=O)C1=CO[C@@H](O[C@@H]2O[C@H](CO)[C@@H](O)[C@H](O)[C@H]2O)C2C1C(=O)C[C@H]2C (stereo partly drawn) , result: inactive

Recorded result, C=C(C)C1CC[C@]2(C(=O)O)CC[C@]3(C(=O)O)[C@H](CCC4[C@@]5(C)CC[C@H](O)C(C)(C)C5CC[C@]43C)C12 (stereo partly drawn) , activity change, negative = cytotoxicity: inactive

New cases:
The recorded activity change, negative = cytotoxicity for entry CC(C)CC(=O)OC1OC=C(CO[C@@H]2O[C@H](CO)[C@@H](O)[C@H](O)[C@H]2O)C2CC(O)C(O)(CO)C12 (stereo partly drawn) equals inactive

Kindly note the recorded activity change, negative = cytotoxicity for NC(=O)c1cccc2cn(-c3ccc(C4CCCNC4)cc3)nc12 (stereo not drawn) , which is inactive

activity change, negative = cytotoxicity reported for this compound C=C(C)C(=O)OC1CC2(C)OC(=CC2=O)C(=C)CC2OC(=O)C(COC)C12 (stereo not drawn) : inactive

Briefly, activity change, negative = cytotoxicity measured for "O=C(O)c1cc(I)ccc1NC(=O)[C@H](Cc1ccccc1)NCc1ccccc1" : inactive

Per the record, C=C1CCC2C(C)(C(=O)OC)CCCC2(C)C1CCC(C)CC(=O)O (stereo not drawn) has activity change, negative = cytotoxicity of inactive

activity change, negative = cytotoxicity measured on CC1(c2nc3c(C(N)=O)cccc3[nH]2)CCCN1 (stereo not drawn) = inactive

Reported activity change, negative = cytotoxicity of CC(NC(=O)CCc1nc2ccccc2c(=O)[nH]1)c1ccccc1 (stereo not drawn) : inactive

Input COC(=O)C1(C)c2[nH]c3ccccc3c2CCN1C(=O)CCl (stereo not drawn) . Output activity change, negative = cytotoxicity: inactive

---

- Tested on: Nanoluciferase (engineered Oplophorus gracilirostris luciferase)
- PROCEDURE TEXT: Primary Nanoluciferase (NLuc) qHTS assay for identification of artifact compounds. (AID 1845222);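 note: NLuc secreted into diluted conditioned medium of S16 cells; 0% = DMSO and -100% = no enzyme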
- CONDITION PARAMETERS: NLuc-conditioned medium, Nano-Glo luminescence, 5 min; series mostly up to 54.1 µM
Activity calls are given as the source filed them. Calls follow the shape of the dose curve; as a rule, active = well fitted inhibition curve with a large enough effect; inconclusive = small, poorly fitted or top-dose-only effect; inactive = flat fitted curve, though single readings scatter.
METRIC NAME: activity, negative = inhibition

Please review the following examples before continuing.
For this compound ( CC1(C)CCC[C@@]2(C)C1[C@H](OC(=O)/C=C/C=C/C(=O)O)C=C1COC(=O)[C@@]12O (stereo not given in full) ), measured activity, negative = inhibition is inactive

The recorded activity, negative = inhibition for "CC1=CC(=O)[C@H]2C(C)(C)CCC[C@]2(C)[C@@]1(O)CO" is inactive

Recorded result, "COc1ccc(-c2nc(-c3ccc(-c4cccc(Cl)c4)o3)[nH]c2-c2ccc(OC)cc2)cc1" , activity, negative = inhibition: inactive

Input "C1CCC[C@H]2CCCN3CC[C@@H](CCCCCC[C@@H]4CCCN5CC[C@@H](CC1)O[C@@H]45)O[C@@H]23" . Output activity, negative = inhibition: 2.4% [at 0.0969 µM] (inactive)

Next item in the queue.
COC(=O)C1=C2Nc3ccccc3C23CCN2CCCC(C(C)O)(C1)C23 (stereo not given) has a reported activity, negative = inhibition of inactive

---

- Tested on: CRL-7250
- PROCEDURE TEXT: Cytotoxic Profiling of Annotated Libraries Using Quantitative High-Throughput Screening (AID 1296008); note: nearly all actives have a fitted effect of over 60% in size
- CONDITION PARAMETERS: Five cell lines viability, CellTiter-Glo ATP luminescence, 48-72 h
Results filed as inconclusive are left out. Active and inactive are the calls of the source. The call rests on the fitted dose curve; in most records, active means well fitted inhibition curve with a large enough effect; inconclusive means small, poorly fitted or top-dose-only effect; inactive means flat fitted curve, though single readings scatter.
Field 'call' accepts TRUE = active, FALSE = inactive

Previously resolved entries follow.
Task: How was "C[C@H]1CC[C@@H]2N(C1)C[C@@H]1[C@H]([C@@H](O)[C@H](O)[C@]3(O)[C@H]1C[C@@]14OC5(O)[C@@H](C[C@@H](O)[C@@H]31)[C@]4(C)CC[C@@H]5O)[C@]2(C)O" classified in this test?
Output: FALSE

Task: Dear colleague, could you share the recorded outcome for O=C(NOCC(O)CO)c1ccc(F)c(F)c1Nc1ccc(I)cc1F (stereo not drawn) when you have a moment?
Output: TRUE

Task: Please let me know the test result on file for "COc1ccc(-c2nc(-c3ccc(-c4cccc(Cl)c4)o3)[nH]c2-c2ccc(OC)cc2)cc1" .
Output: FALSE

Further cases:
Task: Could you please tell me the result logged for "COc1cc2c(cc1OC)N1C(=O)C[C@]34C=CCN5CC[C@@H]2[C@@H](CC3)[C@]514" in this assay?
Output: FALSE

Task: Assay outcome for "Cc1ccc([N+](=O)[O-])cc1S(=O)(=O)N(C)/N=C/c1cnc2ccc(Br)cn12" : what was it?
Output: TRUE

Task: Check the results log: what was the call for "Cc1ccc(Cc2c(C)nc3nc(SCC(=O)NCCN4CCNCC4)nn3c2C)cc1" ?
Output: FALSE

Task: Any idea what this test logged for "CCN1CCN(Cc2ccc(NC(=O)c3ccc(C)c(NC(=O)c4cncc(-c5cccs5)c4)c3)cc2C(F)(F)F)CC1" ?
Output: TRUE

Task: Assay outcome for "CC(=O)c1cc2c(cc1O)OC(C)(C)C=C2" : what was it?
Output: FALSE

---

- System: Tov112D
- PROCEDURE TEXT: Primary qHTS to identify gynecologic anti-cancer compounds using libraries of approved drugs and bioactive compounds (AID 1345084); note: nearly all actives have a fitted effect of over 55% in size
- CONDITION PARAMETERS: Gynecologic cancer cell panel viability, ATPlite luminescence, 48 h; series mostly up to 57.5 µM
Records with an inconclusive call do not appear. The source made the active and inactive calls. Calls come from the whole dose curve; as a rule, active = well fitted cell-killing curve with a large enough effect; inconclusive = small, poorly fitted or top-dose-only effect, or effect the other way; inactive = flat fitted curve, though single readings scatter.
Bench note: report the call from y (active), n (inactive)

Task: State the result this test recorded for CNC(C)C(=O)NC(C(=O)N1CCCC1c1nc(C(=O)c2ccc(F)cc2)cs1)C1CCCCC1 (stereo not given) .
Output: n

Task: Which outcome did this test record for the molecule "Cc1cc(=O)oc2c(C=O)c(O)ccc12" ?
Output: n

Task: # fetch the recorded call for N=c1nc2n(cc1F)C1OC(CO)C(O)C1O2 (stereo not given) here
Output: y

Task: Name the outcome recorded for CC(Nc1ncnc2nc[nH]c12)c1cc2cccc(Cl)c2c(=O)n1-c1ccccc1 (stereo not given) in the assay.
Output: n

Task: How was "Cc1ccc(-c2ccc3c(ccc4sc5c(c43)NC[C@@H](C)NC5=O)n2)cn1" classified in this test?
Output: n

Task: In this assay, the call recorded for "COc1c2ccoc2cc2oc(CO[C@@H]3O[C@H](CO)[C@@H](O)[C@H](O)[C@H]3O)cc(=O)c12" was what?
Output: n

Task: Which outcome was entered for the molecule "Cc1cc(O)cc(O[C@@H]2O[C@H](CO)[C@@H](O)[C@H](O)[C@H]2O)c1" in this test?
Output: n

Task: GET /call?item= "CC(C)C[C@H](CC(=O)NO)C(=O)N[C@@H](Cc1ccc2ccccc2c1)C(=O)N[C@@H](C)C(=O)NCCN" returns the recorded outcome of this test.
Output: n

Task: Recorded test outcome, item "OC[C@H]1O[C@@H](OCCc2ccccc2)[C@H](O[C@@H]2OC[C@](O)(CO)[C@H]2O)[C@@H](O)[C@@H]1O"
Output: n

Task: Which outcome was assigned to CC1(C)CCCC2(C)C1C(O)C=C(CO)C2(O)CO (stereo not given) in this test?
Output: n

Task: How was CC1=C(C(=O)O)/C(=C/CO[C@@H]2O[C@H](COC(=O)/C=C/c3ccc(O)cc3)[C@@H](O)[C@H](O)[C@H]2O)C(O)C1 (stereo not given in full) classified in this test?
Output: n

Task: Outcome? C=C1C(O)C[C@@H]2C(C(=O)O)=CO[C@@H](O[C@@H]3O[C@H](CO)[C@@H](O)[C@H](O)[C@H]3OC(=O)c3ccc(O)cc3)[C@H]12 (stereo not given in full)
Output: n

Task: Recorded test outcome, item O=C1NC(Cc2ccccc2)C(=O)N2CCCC12 (stereo not given)
Output: n
